What logP was measured for each of the following?
Assay: Measurement of log P values by HPLC on reversed phase columns (EEC directive 79/831 Annex V.A8)
Assay type: physicochemical
Settings: method marked [a]

Any idea what logP was measured for CC1c2c(NC(=O)c3c(C(F)F)nn(C)c3Br)cccc2C(C)(C)C1C (stereo not drawn) ?
4.23[a]

Fill blank: measured logP of the molecule CC1CC2(CC2)c2cccc(NC(=S)c3c(C(F)F)nn(C)c3Cl)c21 (stereo not drawn) is ____.
3.85[a]

Find the recorded logP belonging to CC(C)CC1CCc2c(NC(=O)c3c(C(F)F)nn(C)c3F)cccc21 (stereo not drawn) and report it.
4.59[a]

Query: logP; subject: CC1CC(C)(C)c2cccc(NC(=O)c3c(C(F)F)nn(C)c3Br)c21 (stereo not drawn)
4.03[a]

Entry CC1CC2(CCCCC2)c2cccc(NC(=O)c3c(C(F)F)nn(C)c3Cl)c21 (stereo not drawn) : reported logP = ?
5.01[a]

Record request: logP value, item CC(C)CC1CCc2c(NC(=O)c3c(C(F)F)nn(C)c3Cl)cccc21 (stereo not drawn)
4.87[a]

What measured logP goes with CC(C)C1Cc2c(NC(=O)c3c(C(F)F)nn(C)c3Cl)cccc2C1(C)C (stereo not drawn) ?
4.95[a]

Please give the measured logP for this molecule: CCCON=C1CC(C)c2c(NC(=O)c3c(C(F)F)nn(C)c3F)cccc21 (stereo not drawn)
3.67[a]

I have this molecule here, CC(C)CC1CC(C)c2c(NC(=O)c3c(C(F)F)nn(C)c3Cl)cccc21 (stereo not drawn) [Example 79] , and I need its recorded logP.
4.98[a]

# lookup: logP of CC(C)CC1CC(C)c2c(NC(=O)c3c(C(F)F)nn(C)c3F)cccc21 (stereo not drawn)
4.71[a]

For the molecule Cn1nc(C(F)F)c(C(=O)Nc2cccc3c2CC2(CCCC2)C3)c1Cl , what logP is on record?
4.44[a]

What value of measured logP is listed for CC1CC(C)(C)c2c(Br)ccc(NC(=S)c3c(C(F)F)nn(C)c3F)c21 (stereo not drawn) ?
4.64[a];

// query logP value for entry Cn1nc(C(F)F)c(C(=O)Nc2cccc3c2CC2CCCCC32)c1Cl (stereo not drawn)
4.54[a]

Name the recorded logP for CC(C)C1Cc2c(NC(=O)c3c(C(F)F)nn(C)c3Cl)cccc2C1C (stereo not drawn) .
4.69[a]

Record request: logP value, item CC1CC2(CC2)c2cccc(NC(=S)c3c(C(F)F)nn(C)c3F)c21 (stereo not drawn)
3.71[a]

Which logP is reported for this molecule? Cn1nc(C(F)F)c(C(=S)Nc2cccc3c2CCC3C(C)(C)C)c1F (stereo not drawn)
4.51[a]

Dear colleague, I am looking for the recorded logP of the following molecule: Cn1nc(C(F)F)c(C(=O)Nc2cccc3c2CC(C)(C)C3)c1Cl
3.21[a]

Which logP is listed for CC1CC(C)(C)c2c(C3CC3)ccc(NC(=O)c3c(C(F)F)nn(C)c3Cl)c21 (stereo not drawn) ?
4.57[a];

// provenance: patent US9375005B2
